- TEST_DESCRIPTION: Standard protocol for determination of kcat and KM (continuous spectrophotometric assay, Acetyl CoA hydrolysis at 235 nm)
- Assay type: biochemical
- TEST_CONDITIONS: purified protein; about 23° C.; pH 6.8; 0.2 mM acetyl CoA; glyphosate 0.125 to 10 mM
Values of Km greater than or equal to 1 mM map to true (1); values below map to false (0).

>>> assigned_label("SEQ ID NO: 301: GAT polypeptide (protein, 13_7A7, GAT polypeptide) MIEVKPINAEDTYEIRHRILRPNQPLEACMYETDLLRSAFHLGGYYRGKLISIASFHQAEHPELEGQKQYQLRGMATLEEYREQKAGSTLIRHAEELLRKKGADLLWCNARTSASGYYKKLGFSEQGEVYDTPPVGPHILMYKKLT")
"false (0)"
>>> assigned_label("SEQ ID NO: 480: GAT polypeptide (protein, 1_4C5, GAT polypeptide) MIEVKPINAEDTYELRHKILRPNQPIEACMYESDLLRGSFHLGGFYRGKLISIASFHKAEHSDLEGQNQYQLRGMATLEGYREQKAGSTLIRHAEEILRKRGADMLWCNARTSASGYYKRLGFSEHGEIFDTPPVGPHILMYKRLT")
"false (0)"
>>> assigned_label("SEQ ID NO: 286: GAT polypeptide (protein, 12_1F9, GAT polypeptide) MIEVKPINAEDTYEIRHRILRPNQPLEACKYETDLLGGTFHLGGYYRGKLISIASFHQAEHPELEGQKQYQLRGMATLEGYREQKAGSTLIRHAEELLRKKGADLLWCNARTSASGYYKKLGFSEQGEVHDIPPTGPHILMYKKLT")
"true (1)"
>>> assigned_label("SEQ ID NO: 483: GAT polypeptide (protein, 1_5H5, GAT polypeptide) MLEVKPINAEETYELRHKILRPNQPLEACMYESDLLRGSFHLGGYYRGQLISIASFHQAEHSELEGQKQYQLRGMATLEGFREQKAGSTLIKHAEQILRKRGADMLWCNARTSAAGYYKKLGFSEHGEIFDTPPVGPHILMYKKLT")
"false (0)"
>>> assigned_label("SEQ ID NO: 277: GAT polypeptide (protein, 10_2B8, GAT polypeptide) MIEVKPINAEDTYEIRHRILRPNQPLEACKYETDLLGGTFHLGGYYRGKLISIASFHQAEHPELEGQKQYQLRGMATLEEYREQKAGSTLIRHAEELLRKKGADLLWCNARTSASGYYKKLGFSEQGEVYDTPPVGPHILMYKKLT")
"true (1)"
>>> assigned_label("SEQ ID NO: 304: GAT polypeptide (protein, 13_8G6, GAT polypeptide) MIEVKPINAEDTYEIRHRILRPNQPLEACKYETDSLGGTFHLGGYYRGKLISIASFNQAEHPELEGQKQYQLRGMATLEGYREQKAGSTLIRHAEELLRKKGADLLWCNARTSASGYYKKLGFSEQGGVYDIPPVGPHILMYKKLT")
"false (0)"
>>> assigned_label("SEQ ID NO: 287: GAT polypeptide (protein, 12_2G9, GAT polypeptide) MIEVKPINAEDTYEIRHRILRPNQPLEACKYETDLLGGTFHLGGYYRGKLVSIASFHQAEHPELEGQKQYQLRGMATLEGYREQKAGSTLIRHAEELLRKKGADLLWCNARTSASGYYKKLGFSEQGEVYDTPPVGPHILMYKKLT")
"true (1)"
>>> assigned_label("SEQ ID NO: 478: GAT polypeptide (protein, 1_3F3, GAT polypeptide) MIEVKPINAEETYELRQRILRPNQPIEACMYESDLLRGSFHLGGFYRGQLISIASFHQAEHSELQGQKQYQLRGMATLEGYREQKAGSTLIKHAEEILRKKGADLLWCNARTSAAGYYKRLGFSEHGEIFDTPPVGPHILMYKRIT")
"true (1)"
>>> assigned_label("SEQ ID NO: 267: GAT polypeptide (protein, 14_2F11, GAT polypeptide) MIEVKPINAEDTYEIRHRILRPNQPLEACKYETDLLRGAFHLGGYYRGKLVSIASFHQAEHPELEGQKQYQLRGMATLEGYREQKAGSTLIRHAEALLRKKGADLLWCNARTSASGYYKKLGFSEQGEVYDTPPAGPHILMYKKLT")
"true (1)"
>>> assigned_label("SEQ ID NO: 434: GAT polypeptide (protein, 9_8H1, GAT polypeptide) MIEVKPITAEDTYEIRHRILRPNQPLEACKYETDLLGGTFHLGGYYRGKLISIASFHQAEHPELEGQKQYQLRGMATLEGYREQKAGSTLIRHAEELLRKKGADLLWCNARTSASGYYKKLGFSEQGEVYDIPPTGPHILMYKKLT")
"true (1)"
>>> assigned_label("SEQ ID NO: 466: GAT polypeptide (protein, 1_1H1, GAT polypeptide) MIEVKPINAEETYELRHKILRPNQPIEACMYESDLLRGSFHLGGFYRGQLISIASFHKAEHSELQGQKQYQLRGMATLEGFREQKAGSSLIRHAEEILRNKGADLLWCNARTTASGYYKRLGFSEHGEVFETPPVGPHILMYKRIT")
"true (1)"
